experimental-target: hMC4-R (Homo sapiens (Human))
assay-comment: High and low density hMC4-R functional assay (cAMP, HEK293-T-REx-MC4-R cells)
Type: cell-based
condition-notes: 10 ng/mL Doxycycline (high density hMC4-R system); NDP-α-MSH = 100%; read-out: Intrinsic Activity (%)
Recorded Emax for the following compounds

chemical-string: CC(=O)N[C@@H](CCCNC(=N)N)C(=O)N[C@H]1CCC(=O)NCCC[C@@H](C(N)=O)NC(=O)[C@H](Cc2c[nH]c3ccccc23)NC(=O)[C@H](CCCNC(=N)N)NC(=O)[C@@H](Cc2ccccc2[N+](=O)[O-])NC(=O)[C@H](CCN)NC1=O
experimental-target: hMC4-R (Homo sapiens (Human))
units-label: %
Emax: 93
//
chemical-string: CC(=O)N[C@@H](CCCNC(=N)N)C(=O)N[C@H]1CCC(=O)NCCC[C@@H](C(N)=O)NC(=O)[C@H](Cc2c[nH]c3ccccc23)NC(=O)[C@H](CCCNC(=N)N)NC(=O)[C@@H](Cc2ccccc2Cl)NC(=O)[C@H](CCC(N)=O)NC1=O
experimental-target: hMC4-R (Homo sapiens (Human))
units-label: %
Emax: 97
//
chemical-string: CC(=O)N[C@@H](CCCNC(=N)N)C(=O)N[C@H]1CCC(=O)NCCC[C@@H](C(N)=O)NC(=O)[C@H](Cc2c[nH]c3ccccc23)NC(=O)[C@H](CCCNC(=N)N)NC(=O)[C@@H](Cc2cccc(Cl)c2)NC(=O)[C@H](CCC(N)=O)NC1=O
experimental-target: hMC4-R (Homo sapiens (Human))
units-label: %
Emax: 97
//
chemical-string: CC(=O)N[C@@H](CCCNC(=N)N)C(=O)N[C@H]1CCC(=O)NCCC[C@@H](C(N)=O)NC(=O)[C@H](Cc2c[nH]c3ccccc23)NC(=O)[C@H](CCCNC(=N)N)NC(=O)[C@@H](Cc2ccccc2C(F)(F)F)NC(=O)[C@H](CCN)NC1=O
experimental-target: hMC4-R (Homo sapiens (Human))
units-label: %
Emax: 96
//
chemical-string: CC(=O)N[C@@H](CCCNC(=N)N)C(=O)N[C@H]1CCCNC(=O)CC[C@@H](C(N)=O)NC(=O)[C@H](Cc2c[nH]c3ccccc23)NC(=O)[C@H](CCCNC(=N)N)NC(=O)[C@@H](Cc2ccc(F)c(F)c2)NC(=O)[C@H](CC(N)=O)NC1=O
experimental-target: hMC4-R (Homo sapiens (Human))
units-label: %
Emax: 87
//
chemical-string: CC(=O)N[C@H](CCCNC(=N)N)C(=O)N[C@H]1CCCNC(=O)CC[C@@H](C(N)=O)NC(=O)[C@H](Cc2c[nH]c3ccccc23)NC(=O)[C@H](CCCNC(=N)N)NC(=O)[C@@H](Cc2ccc(F)cc2)NC(=O)[C@H](Cc2c[nH]cn2)NC1=O
experimental-target: hMC4-R (Homo sapiens (Human))
units-label: %
Emax: 100

###

experimental-target: hMC4-R (Homo sapiens (Human), UniProt P32245)
Sequence (P32245 whole entry): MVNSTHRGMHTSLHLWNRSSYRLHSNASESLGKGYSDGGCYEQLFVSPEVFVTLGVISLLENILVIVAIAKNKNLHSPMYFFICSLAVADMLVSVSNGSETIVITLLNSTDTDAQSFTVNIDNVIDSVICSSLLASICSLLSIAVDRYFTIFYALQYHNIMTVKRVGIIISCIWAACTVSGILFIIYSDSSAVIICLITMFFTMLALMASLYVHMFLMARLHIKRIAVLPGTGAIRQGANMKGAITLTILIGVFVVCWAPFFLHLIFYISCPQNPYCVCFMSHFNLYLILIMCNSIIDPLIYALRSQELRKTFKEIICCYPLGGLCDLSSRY
assay-comment: High and low density hMC4-R functional assay (cAMP, HEK293-T-REx-MC4-R cells)
Format: cell-based
condition-notes: 0.1 ng/mL Doxycycline (low density hMC4-R system); NDP-α-MSH = 100%; read-out: Intrinsic Activity (%)

chemical-string: CC(=O)N[C@@H](CCCNC(=N)N)C(=O)N[C@H]1CCC(=O)NCCC[C@@H](C(N)=O)NC(=O)[C@H](Cc2c[nH]c3ccccc23)NC(=O)[C@H](CCCNC(=N)N)NC(=O)[C@@H](Cc2ccc(F)c(F)c2)NC(=O)[C@H](CCN)NC1=O
Emax / %: 74
//
chemical-string: CC(=O)N[C@@H](CCCNC(=N)N)C(=O)N[C@H]1CCCNC(=O)CC[C@@H](C(N)=O)NC(=O)[C@H](Cc2c[nH]c3ccccc23)NC(=O)[C@H](CCCNC(=N)N)NC(=O)[C@@H](Cc2ccccc2C)NC(=O)[C@H](CCC(N)=O)NC1=O
Emax / %: 81
//
chemical-string: CC(=O)N[C@@H](CCCNC(=N)N)C(=O)N[C@H]1CCCNC(=O)CC[C@@H](C(N)=O)NC(=O)[C@H](Cc2c[nH]c3ccccc23)NC(=O)[C@H](CCCNC(=N)N)NC(=O)[C@@H](Cc2ccc(F)cc2)NC(=O)[C@H](CC(N)=O)NC1=O
Emax / %: 64
//
chemical-string: CC(=O)N[C@@H](CCCNC(=N)N)C(=O)N[C@H]1CCC(=O)NCCC[C@@H](C(N)=O)NC(=O)[C@H](Cc2c[nH]c3ccccc23)NC(=O)[C@H](CCCNC(=N)N)NC(=O)[C@@H](Cc2ccccc2F)NC(=O)[C@H](CC(N)=O)NC1=O
Emax / %: 78
//
chemical-string: CC(=O)N[C@@H](CCCNC(=N)N)C(=O)N[C@H]1CCC(=O)NCCC[C@@H](C(N)=O)NC(=O)[C@H](Cc2c[nH]c3ccccc23)NC(=O)[C@H](CCCNC(=N)N)NC(=O)[C@@H](Cc2ccccc2C)NC(=O)[C@H](CCN)NC1=O
Emax / %: 83
